Entry source: patent US8263613B2

- experiment_summary: Oral pharmacokinetic study in male rats (oral gavage)
- Assay type: in vivo, rat
- recorded_conditions: male, CD, rat, in vivo, po, 10 mg/kg, 10 mg/kg (free base equivalents), 0.5% CMC
quantity_kind: AUC(0-t) (ng·h/mL)

- Cc1c(CN(C)C(=O)/C=C/c2cnc3c(c2)CCC(=O)N3)oc2ccccc12.Cc1ccc(S(=O)(=O)O)cc1.O [Tosylate monohydrate milled]: 2040

---

- experiment_summary: Solubility in cyclodextrins
- Format: physicochemical
- recorded_conditions: aqueous with cosolvent or surfactant or cyclodextrin, thermodynamic from solid, cyclodextrin concentration 40%; read-out: Solubility in Sulfobutyl Ether Beta-Cyclodextrin
quantity_kind: solubility (µg/mL)

- Cc1c(CN(C)C(=O)/C=C/c2cnc3c(c2)CCC(=O)N3)oc2ccccc12.Cc1ccc(S(=O)(=O)O)cc1.O [Tosylate monohydrate milled]: 4000

---

- experiment_summary: Solubility in cyclodextrins
- Assay type: physicochemical
- recorded_conditions: aqueous with cosolvent or surfactant or cyclodextrin, thermodynamic from solid, cyclodextrin concentration 10%; read-out: Solubility in Hydroxypropyl Beta-Cyclodextrin
quantity_kind: solubility (µg/mL)

* Cc1c(CN(C)C(=O)/C=C/c2cnc3c(c2)CCC(=O)N3)oc2ccccc12.Cc1ccc(S(=O)(=O)O)cc1.O [Tosylate monohydrate milled] | 26

---

- experiment_summary: Solubility in cyclodextrins
- Format: physicochemical
- recorded_conditions: aqueous with cosolvent or surfactant or cyclodextrin, thermodynamic from solid, cyclodextrin concentration 10%; read-out: Solubility in Sulfobutyl Ether Beta-Cyclodextrin
quantity_kind: solubility

• Cc1c(CN(C)C(=O)/C=C/c2cnc3c(c2)CCC(=O)N3)oc2ccccc12.Cc1ccc(S(=O)(=O)O)cc1.O [Tosylate monohydrate milled] = 67 µg/mL

---

- experiment_summary: Pharmacokinetic study in male rats, single oral dose in 80% PEG400
- recorded_conditions: male, rat, in vivo, po, 30 mg/kg, single oral dose 30 mg/kg in 80% PEG400, particle state Unmilled
quantity_kind: AUC(0-t) (ng·h/mL)

• Cc1c(CN(C)C(=O)/C=C/c2cnc3c(c2)CCC(=O)N3)oc2ccccc12 [Free base] = 1160

---

- experiment_summary: Pharmacokinetic study in male rats, single oral dose in 80% PEG400
- recorded_conditions: male, rat, in vivo, po, 30 mg/kg, single oral dose 30 mg/kg in 80% PEG400, particle state Milled
quantity_kind: Cmax (ng/mL)

* CS(=O)(=O)O.Cc1c(CN(C)C(=O)/C=C/c2cnc3c(c2)CCC(=O)N3)oc2ccccc12 [Mesylate] | 884
* Cc1c(CN(C)C(=O)/C=C/c2cnc3c(c2)CCC(=O)N3)oc2ccccc12.Cc1ccc(S(=O)(=O)O)cc1 [Tosylate] | 1610
* Cc1c(CN(C)C(=O)/C=C/c2cnc3c(c2)CCC(=O)N3)oc2ccccc12 [Free base] | 1970

---

- experiment_summary: Oral pharmacokinetic study in male rats (oral gavage)
- Assay type: in vivo, rat
- recorded_conditions: male, CD, rat, plasma, po, 10 mg/kg, 10 mg/kg (free base equivalents), 1% Poloxamer 407
quantity_kind: Cmax (ng/mL)

* Cc1c(CN(C)C(=O)/C=C/c2cnc3c(c2)CCC(=O)N3)oc2ccccc12 [Free base] | 157

---

- experiment_summary: Solubility in cyclodextrins
- Assay type: physicochemical
- recorded_conditions: 10% sulfobutyl ether beta-cyclodextrin, aqueous with cosolvent or surfactant or cyclodextrin, thermodynamic from solid, cyclodextrin concentration 10%; read-out: Solubility in Sulfobutyl Ether Beta-Cyclodextrin
quantity_kind: solubility (µg/mL)

• Cc1c(CN(C)C(=O)/C=C/c2cnc3c(c2)CCC(=O)N3)oc2ccccc12 [Free base] = 7
